MEASUREMENT_TARGET: α4β7 integrin (Homo sapiens (Human), UniProt P13612+P26010)
Sequence (P26010 20-798, one chain of several): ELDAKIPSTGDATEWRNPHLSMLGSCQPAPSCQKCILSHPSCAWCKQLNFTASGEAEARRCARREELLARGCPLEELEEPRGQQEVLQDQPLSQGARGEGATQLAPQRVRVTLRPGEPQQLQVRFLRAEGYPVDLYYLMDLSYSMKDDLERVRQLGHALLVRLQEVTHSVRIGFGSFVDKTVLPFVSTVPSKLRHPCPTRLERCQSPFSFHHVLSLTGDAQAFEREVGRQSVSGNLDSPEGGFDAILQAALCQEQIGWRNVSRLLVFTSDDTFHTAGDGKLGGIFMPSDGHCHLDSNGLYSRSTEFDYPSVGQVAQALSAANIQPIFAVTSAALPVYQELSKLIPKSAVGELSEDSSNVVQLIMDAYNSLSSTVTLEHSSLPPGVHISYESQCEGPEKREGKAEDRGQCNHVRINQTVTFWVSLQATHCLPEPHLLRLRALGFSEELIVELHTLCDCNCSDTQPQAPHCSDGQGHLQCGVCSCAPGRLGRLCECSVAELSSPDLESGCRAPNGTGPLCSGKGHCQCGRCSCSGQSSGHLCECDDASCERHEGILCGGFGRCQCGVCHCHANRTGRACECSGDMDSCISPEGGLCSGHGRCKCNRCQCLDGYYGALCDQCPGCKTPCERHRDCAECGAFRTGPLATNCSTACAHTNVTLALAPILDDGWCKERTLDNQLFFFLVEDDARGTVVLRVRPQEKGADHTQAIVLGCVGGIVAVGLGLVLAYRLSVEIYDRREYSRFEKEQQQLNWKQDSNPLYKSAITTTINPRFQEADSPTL
PROTOCOL: Integrin Adhesion Assay: Protocol 1 (MAdCAM-coated plate, RPMI-8866 cells, CellTiter GLO readout)
Type: cell-based
Protocol: α4β7 and α4β1 inhibition was evaluated in vitro using at least one of the following procedures: Integrin Adhesion Assay: Protocol 1 MAdCAM (R&D Systems, 0.1 ug) was diluted in 50 μL PBS, added to each well of an opaque ELISA plate (Thermo), and incubated overnight at 4° C. […] Plates were mixed for 2 minutes at 1000 rpm and then allowed to incubate an additional 10 minutes before reading out luminescence on a Tecan Spark plate reader. […]
Reported IC50 is given for each of the following compounds.

Example cases with answers are listed next.
> print(dat)
                                   compound                        measurement.target  value.observed
1  Cc1cccc(C)c1-c1cc(F)c(F)c(C(=O)N[C@@H](Cc2cccc3c(-c4c(C(F)(F)F)c5ccccc5n(C)c4=O)cccc23)C(=O)O)c1 [Compound 306]  α4β7 integrin (Homo sapiens (Human), UniProt P13612+P26010)          > 1 µM
2  Cn1c(=O)c(-c2cccc3c(C[C@H](NC(=O)c4c(F)cc(N(CCC(F)(F)F)C5COC5)cc4F)C(=O)O)cccc23)c(C(F)(F)F)c2ccccc21 [Compound 392]  α4β7 integrin (Homo sapiens (Human), UniProt P13612+P26010)  0.01 to 0.1 µM
3  Cn1c(=O)c(-c2cccc3c(C[C@H](NC(=O)[C@]4(C)CC[C@@H](N5CCS(=O)(=O)CC5)CC4)C(=O)O)cccc23)c(C(F)(F)F)c2ccccc21 [Compound 404]  α4β7 integrin (Homo sapiens (Human), UniProt P13612+P26010)     0.1 to 1 µM

As a next step, examine the compound that follows.
Lookup: For Cn1c(=O)c(-c2cccc3c(C[C@H](NC(=O)c4c(F)cc(N(CC(F)(F)F)CC(F)(F)F)cc4F)C(=O)O)cccc23)c(C(F)(F)F)c2ccccc21 [Compound 324] , what is its reported IC50?
Found: 0.01 to 0.1 µM

----------
MEASUREMENT_TARGET: α4β7 integrin (Homo sapiens (Human), UniProt P13612+P26010)
PROTOCOL: Integrin Adhesion Assay: Protocol 4 (MAdCAM-coated plate, RPMI-8866 cells with stable LOF mutation of the ITGB1 gene)
Type: cell-based
MEASUREMENT_SETUP: Protocol 4; RPMI-8866 cells with LOF mutation of ITGB1, MAdCAM; read-out: Mean IC50 α4β7 KO
Quick list: IC50 per entry.

The examples below pair each entry with its known result.
> print(dat)
                                 mol.smiles  value.observed
1  COc1ccc(CN2CCCC2)c(OC)c1-c1cccc2c(C[C@H](NC(=O)C3(C(F)(F)F)CCN(CC(F)(F)F)CC3)C(=O)O)cccc12         < 10 nM
2  O=C(O)[C@H](Cc1cccc2c(-c3ncc(CN4CCC4)c4ccccc34)cccc12)NC(=O)C1(C(F)(F)F)CCN(CC(F)F)CC1         < 10 nM
3  COc1ccc2c(c1-c1cccc3c(C[C@H](NC(=O)c4c(C)cccc4F)C(=O)O)cccc13)CCN(C)C2         < 10 nM
4  Cc1c(CCN2CCCCC2)ccnc1-c1cccc2c(C[C@H](NC(=O)C3(C(F)(F)F)CCN(CC(F)(F)F)CC3)C(=O)O)cccc12         < 10 nM

Shifting focus to the molecule that follows.
Lookup: Item under review: `C[C@@H]1CN(Cc2cnc(-c3cccc4c(C[C@H](NC(=O)C5(C(F)(F)F)CCN(CC(F)(F)F)CC5)C(=O)O)cccc34)c3ccccc23)C[C@H](C)N1` . Reported IC50?
Found: < 10 nM

----------
Quick reference: pIC50 of the listed items.
MEASUREMENT_TARGET: α4β7 integrin (Homo sapiens (Human), UniProt P13612+P26010)
PROTOCOL: Integrin Adhesion Assay: Protocol 1 (MAdCAM-coated plate, RPMI-8866 cells, CellTiter GLO readout)
Type: cell-based
MEASUREMENT_SETUP: protocol not given
pIC50: −log10 of the molar value.

Look over these answered cases.
COMPOUND	VALUE_OBSERVED
CN(C)CCc1ccc2c(c1)c(C(F)(F)F)c(-c1cccc3c(C[C@H](NC(=O)c4c(F)cccc4F)C(=O)O)cccc13)c(=O)n2C [Compound 705]	> 8.00
Cc1cccc(C)c1-c1cc(F)c(C(=O)N[C@@H](Cc2cccc3c(-n4c(=O)cc(CCN5CC(F)C5)n(C)c4=O)cccc23)C(=O)O)c(F)c1 [Compound 1057]	7.00 to 8.00

Lookup: Any idea what its pIC50 is? The compound is CN(C)Cc1ccc2c(c1)c(C(F)(F)F)c(-c1cccc3c(C[C@H](NC(=O)c4c(F)cc(N5CCOC[C@@H]5C(F)(F)F)cc4F)C(=O)O)cccc13)c(=O)n2C [Compound 698]
Found: > 8.00

Lookup: Also need CN(C)CCc1ccc2c(c1)c(C(F)(F)F)c(-c1cccc3c(C[C@H](NC(=O)c4c(F)cc(N5CCOC[C@@H]5C(F)(F)F)cc4F)C(=O)O)cccc13)c(=O)n2C [Compound 708] , thanks.
Found: > 8.00

----------
The following compounds are listed with their measured pIC50 values.
MEASUREMENT_TARGET: α4β1 integrin (Homo sapiens (Human), UniProt P05556+P13612)
Sequence (P13612 34-1032): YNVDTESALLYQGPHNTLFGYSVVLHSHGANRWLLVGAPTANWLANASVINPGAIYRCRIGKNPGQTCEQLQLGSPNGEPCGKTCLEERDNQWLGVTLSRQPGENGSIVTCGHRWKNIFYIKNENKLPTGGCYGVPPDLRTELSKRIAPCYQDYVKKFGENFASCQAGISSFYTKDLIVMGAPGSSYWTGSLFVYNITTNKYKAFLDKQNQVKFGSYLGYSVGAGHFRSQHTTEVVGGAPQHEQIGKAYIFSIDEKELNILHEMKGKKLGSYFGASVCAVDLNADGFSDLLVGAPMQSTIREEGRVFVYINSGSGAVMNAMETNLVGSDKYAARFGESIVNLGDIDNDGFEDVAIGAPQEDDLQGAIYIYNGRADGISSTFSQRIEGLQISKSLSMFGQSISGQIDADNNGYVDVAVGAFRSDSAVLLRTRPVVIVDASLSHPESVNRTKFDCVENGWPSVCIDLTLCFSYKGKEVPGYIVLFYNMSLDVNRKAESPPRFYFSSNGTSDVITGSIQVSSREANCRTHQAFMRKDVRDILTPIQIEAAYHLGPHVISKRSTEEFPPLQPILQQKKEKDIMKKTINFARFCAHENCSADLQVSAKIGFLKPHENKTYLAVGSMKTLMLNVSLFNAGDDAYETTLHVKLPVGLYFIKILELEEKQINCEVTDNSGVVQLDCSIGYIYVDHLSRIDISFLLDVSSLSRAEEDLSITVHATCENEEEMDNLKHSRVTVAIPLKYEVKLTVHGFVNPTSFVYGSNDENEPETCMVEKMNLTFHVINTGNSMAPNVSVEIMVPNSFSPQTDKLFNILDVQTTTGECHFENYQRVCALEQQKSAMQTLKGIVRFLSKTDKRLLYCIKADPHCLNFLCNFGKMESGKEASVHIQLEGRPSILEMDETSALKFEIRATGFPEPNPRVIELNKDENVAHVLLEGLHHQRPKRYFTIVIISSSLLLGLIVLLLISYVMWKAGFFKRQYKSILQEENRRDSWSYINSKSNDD
Sequence (P05556 21-798): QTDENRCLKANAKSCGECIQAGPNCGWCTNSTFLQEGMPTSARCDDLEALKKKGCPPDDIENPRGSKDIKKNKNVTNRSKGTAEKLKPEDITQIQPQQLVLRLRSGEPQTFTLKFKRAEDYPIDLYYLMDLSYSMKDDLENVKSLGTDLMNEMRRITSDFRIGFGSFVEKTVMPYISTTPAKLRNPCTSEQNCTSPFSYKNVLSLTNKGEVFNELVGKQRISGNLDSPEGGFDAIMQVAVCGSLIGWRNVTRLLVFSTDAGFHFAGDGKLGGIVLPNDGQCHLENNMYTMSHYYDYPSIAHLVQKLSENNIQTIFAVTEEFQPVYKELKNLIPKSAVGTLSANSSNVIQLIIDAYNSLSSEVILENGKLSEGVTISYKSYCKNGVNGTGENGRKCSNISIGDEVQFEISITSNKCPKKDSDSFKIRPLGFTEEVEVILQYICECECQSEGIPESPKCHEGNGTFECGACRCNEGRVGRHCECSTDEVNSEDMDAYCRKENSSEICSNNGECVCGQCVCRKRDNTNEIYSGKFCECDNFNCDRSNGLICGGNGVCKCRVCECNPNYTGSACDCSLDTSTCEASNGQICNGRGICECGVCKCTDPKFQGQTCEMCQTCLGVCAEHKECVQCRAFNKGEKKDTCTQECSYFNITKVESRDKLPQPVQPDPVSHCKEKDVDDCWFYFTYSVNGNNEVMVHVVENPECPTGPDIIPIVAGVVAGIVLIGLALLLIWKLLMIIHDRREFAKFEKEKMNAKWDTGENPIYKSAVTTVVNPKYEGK
PROTOCOL: Integrin Adhesion Assay: Protocol 5 (VCAM-coated plate, RPMI-8866 cells with stable LOF mutation of the ITGB7 gene)
Format: cell-based
MEASUREMENT_SETUP: RPMI-8866 cells with stable LOF mutation of the ITGB7 gene; read-out: Mean IC50 α4β1 KO^b
pIC50: −log10 of the molar value.

Sample answers from the record:
COMPOUND	pIC50
CC[C@H](N1CCC(C(=O)N[C@@H](Cc2cccc3c(-c4c(C(F)(F)F)c5ccccc5n(C)c4=O)cccc23)C(=O)O)(C(F)(F)F)CC1)C(F)(F)F	< 6.00
Cn1c(=O)c(-c2cccc3c(C[C@H](NC(=O)C4(C(F)(F)F)CCN(C5CCOC5(C)C)CC4)C(=O)O)cccc23)c(C(F)(F)F)c2ccccc21 (stereo partly drawn)	6.00 to 7.00
Cn1c(=O)c(-c2cccc3c(C[C@H](NC(=O)c4c(F)ccc(-c5ccccn5)c4F)C(=O)O)cccc23)c(C(F)(F)F)c2ccccc21	< 6.00

Lookup: # query: pIC50 of entry Cn1c(=O)c(-c2cccc3c(C[C@H](NC(=O)C4(C(F)(F)F)CCN(C5COCC5(F)F)CC4)C(=O)O)cccc23)c(C(F)(F)F)c2ccccc21 (stereo partly drawn)
Found: 6.00 to 7.00

Lookup: Entry `CC[C@@H](Nc1cc(F)c(C(=O)N[C@@H](Cc2cccc3c(-c4c(C(F)(F)F)c5ccccc5n(C)c4=O)cccc23)C(=O)O)c(F)c1)C(F)(F)F` please
Found: < 6.00

Lookup: Try `COc1cccc(CN2CCCCC2)c1-c1cccc2c(C[C@H](NC(=O)c3c(F)cccc3Cl)C(=O)O)cccc12` next.
Found: 6.00 to 7.00

Lookup: Repeat for the following compound: `COc1ccc(CN(C)CC(F)F)c(OC)c1-c1cccc2c(C[C@H](NC(=O)c3c(C)cccc3F)C(=O)O)cccc12`
Found: 6.00 to 7.00

Lookup: Also need `Cc1cccc(F)c1C(=O)N[C@@H](Cc1cccc2c(-c3c(C(F)(F)F)c4cc(N(C)C)ccc4n(C)c3=O)cccc12)C(=O)O` , thanks.
Found: < 6.00

Lookup: Ok, now `COc1ccc(CN2CCC3(CCCCC3)CC2)c(OC)c1-c1cccc2c(C[C@H](NC(=O)c3c(C)cccc3F)C(=O)O)cccc12`
Found: < 6.00

----------
MEASUREMENT_TARGET: α4β1 integrin (Homo sapiens (Human), UniProt P05556+P13612)
PROTOCOL: Integrin Adhesion Assay: Protocol 2 (VCAM-coated plate, Jurkat cells, CellTiter GLO readout)
Type: cell-based
MEASUREMENT_SETUP: determined by at least one of the assays described (protocol not specified)
pIC50: −log10 of the molar value.
ATTRIBUTE_MEASURED: pIC50

Please review the following examples before continuing.
> print(dat)
                                   compound                        measurement.target  value.observed
1  Cn1ccc(=O)n(-c2cccc3c(C[C@H](NC(=O)c4c(F)cccc4CN4CCOCC4)C(=O)O)cccc23)c1=O [Compound 167]  α4β1 integrin (Homo sapiens (Human), UniProt P05556+P13612)    6.00 to 7.00
2  CC(C)Oc1cc(F)c(C(=O)N[C@@H](Cc2cccc3c(-n4c(=O)ccn(C)c4=O)cccc23)C(=O)O)c(F)c1 [Compound 30]  α4β1 integrin (Homo sapiens (Human), UniProt P05556+P13612)          < 6.00

// moving on: another record for pIC50
Lookup: What value of pIC50 has been reported for the following compound? O=C(N[C@@H](Cc1cccc2c(-n3c(=O)ccc4cnccc43)cccc12)C(=O)O)c1c(F)cccc1F [Compound 2]
Found: < 6.00
